Origin of values: ChEMBL document CHEMBL4190247

Biological target: Gamma-aminobutyric acid receptor subunit alpha-1/beta-2/delta (Homo sapiens) (UniProt P14867+P47870+O14764)
Test: Modulation of human alpha1beta2delta GABAA receptor expressed in Xenopus laevis oocytes assessed as increase in GABA-induced current at 1 mM at -60 mV holding potential by two-electrode voltage clamp electrophysiology method relative to control
Assay type: cell-based
In plain terms, low fold change (FC), meaning strictly below 3, gives t, and everything else gives f.

Solved entries:
{"columns": ["COMPOUND", "ASSIGNED_LABEL"],
 "data": [
  ["COC(=O)C1=C(C)NC(=O)NC1c1ccccc1 (configuration not stated)", "f"],
  ["CCOC(=O)C1=C(C)NC(=S)NC1c1cccc(O)c1 (configuration not stated)", "t"],
  ["CCOC(=O)C1=C(C)NC(=S)NC1c1ccc(O)c(O)c1 (configuration not stated)", "t"],
  ["CCOC(=O)C1=C(C)N(C)C(=S)NC1c1cccc(O)c1 (configuration not stated)", "f"],
  ["CCOC(=O)C1=C(C)NC(=O)NC1c1cccc(O)c1 (configuration not stated)", "f"]
]}

In: # strict comparison: is reported fold change (FC) < 3? input = COC(=O)C1=C(C)NC(=S)NC1c1cccc(O)c1 (configuration not stated)
Out: t

In: # strict comparison: is reported fold change (FC) < 3? input = CCOC(=O)C1=C(CC)NC(=S)NC1c1cccc(O)c1 (configuration not stated)
Out: t
